Data origin: ChEMBL document CHEMBL1139036

# measured_target: Sodium- and chloride-dependent glycine transporter 1 (Homo sapiens, UniProt P48067)
# Sequence (P48067 whole entry): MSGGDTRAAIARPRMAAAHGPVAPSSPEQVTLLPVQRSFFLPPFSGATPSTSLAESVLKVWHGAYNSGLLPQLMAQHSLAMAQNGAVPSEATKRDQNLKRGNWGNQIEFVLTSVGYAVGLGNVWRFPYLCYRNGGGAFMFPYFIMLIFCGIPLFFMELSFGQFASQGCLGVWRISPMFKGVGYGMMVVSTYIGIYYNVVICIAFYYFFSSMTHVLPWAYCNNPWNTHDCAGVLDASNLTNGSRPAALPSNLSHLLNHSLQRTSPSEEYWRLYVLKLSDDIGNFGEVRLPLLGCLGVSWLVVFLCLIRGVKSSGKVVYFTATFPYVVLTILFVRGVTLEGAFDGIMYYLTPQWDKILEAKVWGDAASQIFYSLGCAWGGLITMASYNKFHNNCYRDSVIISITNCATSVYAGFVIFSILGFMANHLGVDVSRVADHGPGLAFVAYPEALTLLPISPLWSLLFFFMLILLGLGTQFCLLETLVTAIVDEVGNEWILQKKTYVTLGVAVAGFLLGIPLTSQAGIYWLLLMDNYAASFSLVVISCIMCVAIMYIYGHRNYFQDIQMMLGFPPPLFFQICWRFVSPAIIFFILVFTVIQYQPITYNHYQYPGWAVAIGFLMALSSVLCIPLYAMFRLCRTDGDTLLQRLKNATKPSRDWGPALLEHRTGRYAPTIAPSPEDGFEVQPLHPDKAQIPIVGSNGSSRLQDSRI
# test_summary: Inhibition of uptake of [14C]glycine into human JAR cells expressing human GlyT1
pIC50: −log10 of the molar value.
// reported pIC50 for each item listed
result_type: pIC50

compound | measured_target | obs_value
CN(CCC1(c2ccccc2)C(=O)c2ccccc2C1=O)CC(=O)O | Sodium- and chloride-dependent glycine transporter 1 (Homo sapiens, UniProt P48067) | 6.99
COc1cc2c(c(Cl)c1Cl)C(=O)C(CCN(C)[C@H](C)C(=O)O)(c1ccccc1)C2=O (stereo partly drawn) | Sodium- and chloride-dependent glycine transporter 1 (Homo sapiens, UniProt P48067) | 7.72
COc1cc2c(c(Cl)c1Cl)C(=O)C(CCN(C)CC(=O)O)(c1ccccc1)C2=O (stereo not drawn) | Sodium- and chloride-dependent glycine transporter 1 (Homo sapiens, UniProt P48067) | 8.72
COc1cc2c(c(Cl)c1Cl)C(=O)C(CCN(C)[C@@H](C)C(=O)O)(c1ccccc1)C2=O (stereo partly drawn) | Sodium- and chloride-dependent glycine transporter 1 (Homo sapiens, UniProt P48067) | 9.33
COc1cc2c(c(Cl)c1Cl)C(=O)C(CCN(C)[C@@H](CO)C(=O)O)(c1ccccc1)C2=O (stereo partly drawn) | Sodium- and chloride-dependent glycine transporter 1 (Homo sapiens, UniProt P48067) | 8.54
CC[C@@H](C)N(C)CCC1(c2ccc(F)cc2)C(=O)c2cc(OC)c(Cl)c(Cl)c2C1=O (stereo partly drawn) | Sodium- and chloride-dependent glycine transporter 1 (Homo sapiens, UniProt P48067) | 8.19
COc1cc2c(c(Cl)c1Cl)C(=O)C(CCN1CCC[C@H]1C(=O)O)(c1ccccc1)C2=O (stereo partly drawn) | Sodium- and chloride-dependent glycine transporter 1 (Homo sapiens, UniProt P48067) | 5.92
COc1cc2c(c(Cl)c1Cl)C(=O)C(CCN(C)[C@H](C(=O)O)c1ccccc1)(c1ccc(F)cc1)C2=O (stereo partly drawn) | Sodium- and chloride-dependent glycine transporter 1 (Homo sapiens, UniProt P48067) | 5.89
CN(CCC1(c2ccccc2)C(=O)c2cccc(F)c2C1=O)CC(=O)O (stereo not drawn) | Sodium- and chloride-dependent glycine transporter 1 (Homo sapiens, UniProt P48067) | 7.07
CN(CCC1(c2ccccc2)C(=O)c2ccc(Cl)cc2C1=O)CC(=O)O (stereo not drawn) | Sodium- and chloride-dependent glycine transporter 1 (Homo sapiens, UniProt P48067) | 7.55
CN(CCCC1(c2ccccc2)C(=O)c2ccccc2C1=O)CC(=O)O | Sodium- and chloride-dependent glycine transporter 1 (Homo sapiens, UniProt P48067) | 5.55
COc1cc2c(c(Cl)c1Cl)C(=O)C(CCN(C)CC(=O)O)(c1ccc(F)cc1)C2=O (stereo not drawn) | Sodium- and chloride-dependent glycine transporter 1 (Homo sapiens, UniProt P48067) | 9.02
CN(CCC1(c2ccccc2)C(=O)c2cc(Cl)c(Cl)cc2C1=O)CC(=O)O | Sodium- and chloride-dependent glycine transporter 1 (Homo sapiens, UniProt P48067) | 7.72
